- Target or test system: T1, 4H607-bN
- T1 chain: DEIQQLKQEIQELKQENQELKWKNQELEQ
- Method description: two-hybrid library CCNG1;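 note: natural log of median RNA to DNA barcode read ratio; higher means stronger binding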
Each item that follows carries a reported interaction score.

[
  {
    "Binder": "DENQQLEQKIQELKQENQELKWEIQELEQ [4H1369-bN]",
    "interaction score": -0.655
  },
  {
    "Binder": "DKNQQLKQKNQELEQKIQELEWEIQELEQ [4H4001-bN]",
    "interaction score": -1.46
  },
  {
    "Binder": "DKIQQLKQEIQELEQEIQELKWKNQELKQ [4H2576-bN]",
    "interaction score": -0.239
  },
  {
    "Binder": "DEIQQLEQKNQELKQEIQELKWKIQELKQ [4H462-bN]",
    "interaction score": 0.42
  },
  {
    "Binder": "DKNQQLKQKIQELEQEIQELEWENQELEQ [4H3843-bN]",
    "interaction score": -1.31
  }
]
